Source listed as patent US20050009924A1.

tested on: rat glioma C6 cells; assay: Cytotoxicity assay (XTT colorimetric), C6 cells; assay type: cell-based; conditions: Rattus norvegicus, C6; 48 h of drug exposure
Assign labels as follows, please: Met for IC50 below 30 µM; Not met for IC50 equal to or exceeding 30 µM.

As a guide, the following entries are already answered.
[
  {
    "molecule": "CC(C)(C)C(=O)Oc1cccc2c1C(=O)c1cccc(OC(=O)C(C)(C)C)c1C2=O",
    "classification": "Met"
  },
  {
    "molecule": "Cc1ccc(C(=O)Oc2cccc3c2C(=O)c2cccc(OC(=O)c4ccc(C)cc4)c2C3=O)cc1",
    "classification": "Not met"
  },
  {
    "molecule": "CCN(CC)C(C)C(=O)Nc1ccc(NC(=O)C(C)N(CC)CC)c2c1C(=O)c1ccccc1C2=O (stereo not shown)",
    "classification": "Met"
  },
  {
    "molecule": "O=C1c2cccc(SCCO)c2C(=O)c2cccc(SCCO)c21 [IIb, 1,5-Bis(hydroxyethylthio)-anthraquinone]",
    "classification": "Met"
  }
]

Please let me know if COc1ccc(CSc2cccc3c2C(=O)c2cccc(SCc4ccc(OC)cc4)c2C3=O)cc1 shows IC50 below 30 µM.
Met
